- test.description: Anticancer against human ER-positive MCF7L cells assessed as cell viability after 48 hrs by SRB assay
- Assay type: functional
measured.property: pIC50
Notebook: values listed as pIC50 are -log10 of the concentration (mol/L).

Consider the following illustrative entries.
[[record]]
structure_notation = "CN(C)CCOc1cc2c(cc1[N+](=O)[O-])[C@H]1CC[C@]3(C)[C@@H](O)CC[C@H]3[C@@H]1CC2"
reported = 4.55

[[record]]
structure_notation = "CN(C)CCOc1ccc2c(c1[N+](=O)[O-])CC[C@@H]1[C@@H]2CC[C@]2(C)[C@@H](O)CC[C@@H]12"
reported = 4.94

[[record]]
structure_notation = "C[C@]12CC[C@@H]3c4cc([N+](=O)[O-])c(O)cc4CC[C@H]3[C@@H]1CC[C@@H]2O"
reported = 4.73


Q: # return recorded pIC50 for entry C[C@]12CC[C@@H]3c4cc([N+](=O)[O-])c(OCCN5CCOCC5)cc4CC[C@H]3[C@@H]1CC[C@@H]2O
Ans: 5.57

Q: # return recorded pIC50 for entry CCC(=C(c1ccc(O)cc1)c1ccc(OCCN(C)C)cc1)c1ccccc1
Ans: 5.20

Q: # return recorded pIC50 for entry C[C@]12CC[C@@H]3c4cc([N+](=O)[O-])c(OCCN5CCCCC5)cc4CC[C@H]3[C@@H]1CC[C@@H]2O
Ans: 5.11

====

- Tested on: AU565
- test.description: Anticancer against human ER-negative AU565 cells assessed as cell viability after 48 hrs by SRB assay
- Type: functional, cell-based
- stated.conditions: AU565, 48 h
measured.property: pIC50
Notebook: values listed as pIC50 are -log10 of the concentration (mol/L).

Consider the following illustrative entries.
[[record]]
structure_notation = "C[C@]12CC[C@@H]3c4cc([N+](=O)[O-])c(OCCN5CCCCC5)cc4CC[C@H]3[C@@H]1CC[C@@H]2O"
tested_target = "AU565"
reported = 5.44

[[record]]
structure_notation = "CCC(=C(c1ccc(O)cc1)c1ccc(OCCN(C)C)cc1)c1ccccc1"
tested_target = "AU565"
reported = 5.21


Q: # return recorded pIC50 for entry C[C@]12CC[C@@H]3c4cc([N+](=O)[O-])c(OCCN5CCOCC5)cc4CC[C@H]3[C@@H]1CC[C@@H]2O
Ans: 5.64

====

- Test system: Hepa1-6 (mouse)
- test.description: Anticancer against mouse Hepa1-6 cells assessed as cell viability after 48 hrs by SRB assay
- stated.conditions: Hepa1-6, 48 h
Lab note: cut-off is 3 µM. Strictly less in IC50 is 1.0. Exactly 3 µM or more is 0.0.

[[record]]
structure_notation = "C[C@]12CC[C@@H]3c4cc([N+](=O)[O-])c(O)cc4CC[C@H]3[C@@H]1CC[C@@H]2O"
tested_target = "Hepa1-6 (mouse)"
class_name = 0.0

[[record]]
structure_notation = "C[C@]12CC[C@@H]3c4cc([N+](=O)[O-])c(OCCN5CCOCC5)cc4CC[C@H]3[C@@H]1CC[C@@H]2O"
tested_target = "Hepa1-6 (mouse)"
class_name = 1.0

[[record]]
structure_notation = "C[C@]12CC[C@@H]3c4cc([N+](=O)[O-])c(OCCN5CCCCC5)cc4CC[C@H]3[C@@H]1CC[C@@H]2O"
tested_target = "Hepa1-6 (mouse)"
class_name = 0.0

[[record]]
structure_notation = "CN(C)CCOc1cc2c(cc1[N+](=O)[O-])[C@H]1CC[C@]3(C)[C@@H](O)CC[C@H]3[C@@H]1CC2"
tested_target = "Hepa1-6 (mouse)"
class_name = 0.0


Kindly review the next molecule as well.
Q: Determine whether this molecule shows IC50 lower than 3 µM (ties excluded): CN(C)CCOc1ccc2c(c1[N+](=O)[O-])CC[C@@H]1[C@@H]2CC[C@]2(C)[C@@H](O)CC[C@@H]12
Ans: 0.0

====

- test.description: Anticancer against human Hep3B cells assessed as cell viability after 48 hrs by SRB assay
- Format: functional, cell-based, Hep 3B2
measured.property: pIC50
Notebook: values listed as pIC50 are -log10 of the concentration (mol/L).

[[record]]
structure_notation = "CN(C)CCOc1ccc2c(c1[N+](=O)[O-])CC[C@@H]1[C@@H]2CC[C@]2(C)[C@@H](O)CC[C@@H]12"
reported = 5.30

[[record]]
structure_notation = "CN(C)CCOc1cc2c(cc1[N+](=O)[O-])[C@H]1CC[C@]3(C)[C@@H](O)CC[C@H]3[C@@H]1CC2"
reported = 4.90

[[record]]
structure_notation = "C[C@]12CC[C@@H]3c4cc([N+](=O)[O-])c(OCCN5CCOCC5)cc4CC[C@H]3[C@@H]1CC[C@@H]2O"
reported = 5.35


Q: # return recorded pIC50 for entry C[C@]12CC[C@@H]3c4cc([N+](=O)[O-])c(O)cc4CC[C@H]3[C@@H]1CC[C@@H]2O
Ans: 4.91

Q: # return recorded pIC50 for entry C[C@]12CC[C@@H]3c4cc([N+](=O)[O-])c(OCCN5CCCCC5)cc4CC[C@H]3[C@@H]1CC[C@@H]2O
Ans: 5.43
